Please respond with reported GI50 for every item in the list.
Test system: Hs-578T
Assay name: NCI tumour cell line growth inhibition, 48 h
Active and inactive are the calls of the source. No stated cut-off is given here; in the data, active = GI50 up to about 1.1 µM and inactive = higher.

In: Please look up its GI50: O=S(=O)(O)/C(=N\c1cccc(Cc2ccccc2)c1)Nc1cccc(Cc2ccccc2)c1
Out: 19.1 µM (inactive)

In: Please look up its GI50: Nc1ccc2c(c1)C(=O)c1ccc(F)cc1-2
Out: > 100 µM (inactive)

In: Please look up its GI50: CC(C)(C)N1C(=O)c2ccccc2C1(O)C(F)(F)F (stereo not given)
Out: 24 µM (inactive)

In: Please look up its GI50: O=c1[nH]cc(F)c(=O)[nH]1
Out: 225 µM (inactive)

In: Please look up its GI50: O=[N+]([O-])c1ccc2c(c1)Sc1ccccc1N2CCCCCl
Out: > 100 µM (inactive)

----------
System: SNB-75
Assay name: NCI tumour cell line growth inhibition, 48 h
The source made the active and inactive calls. Cut-off read from the data, not from the text of the source: active = GI50 up to about 1.1 µM and inactive = higher. Peptide text beside a SMILES is read from it. * marks the point of attachment. Cbz = O=C(OCc1ccccc1)*; OBn = c1ccc(CO*)cc1
# valid calls are active, inactive; nothing else

In: Outcome? COc1ccc(NC(=S)Nc2cc(C)ccn2)cc1
Out: inactive

In: Outcome? C[N+](C)(C)CCC(=O)N1C/C(=C\c2ccccc2)C(=O)/C(=C/c2ccccc2)C1
Out: inactive

In: Outcome? O=C1CC(c2cccc([N+](=O)[O-])c2)C2(C(=O)NC(=S)NC2=O)C(c2cccc([N+](=O)[O-])c2)C1 (stereo not given)
Out: inactive

In: Outcome? CCC1C(=O)C(O)[C@H]2[C@@H]3C(O)CC4=CC(=O)CC[C@]4(C)[C@H]3CC[C@]12C (stereo not given in full)
Out: inactive

In: Outcome? COc1ccc(/C=N/NC(=O)c2ccccc2Nc2ccccc2C(=O)N/N=C/c2ccc(OC)c(OC)c2)cc1OC
Out: inactive

In: Outcome? Fc1ccccc1C1SCc2nc3ccccc3n21 (stereo not given)
Out: inactive

In: Outcome? COc1ccc(SCc2cc(OC)ccc2OC)cc1
Out: inactive

In: Outcome? O=C1Oc2cc3c(c4cccc1c24)OCN(c1ccccc1)C3
Out: inactive

In: Outcome? Nc1cccc(-c2cc(O)c3cc4c(cc3n2)OCO4)c1
Out: active

In: Outcome? Oc1cc(-c2ccccc2)nc2cc3c(cc12)OCO3
Out: inactive

In: Outcome? CCOc1cc(C(=O)O)c2c(ccc3ccc(OC)c(OC)c32)c1OC
Out: inactive

In: Outcome? COC(=O)C1=C(C(=O)OC)C2(C3C(SC)=CC(C)(C)CC3S1)N(Cc1ccccc1)CCN2Cc1ccccc1 (stereo not given)
Out: inactive

In: Outcome? N#CC12C(=O)NC(=O)C1(C#N)C1C=CC2CC1 (stereo not given)
Out: inactive

In: Outcome? CC1=NN(c2nc(N)nc(COc3ccc(N)cc3)n2)C(C)(C)C1
Out: inactive

In: Outcome? COC(=O)CNC(=O)C(C)NC(=O)C(CC(=O)OCc1ccccc1)NC(=O)OCc1ccccc1 (stereo not drawn) (Cbz-Asp(OBn)-Ala-Gly-OMe; configuration not given here)
Out: inactive

In: Outcome? C=C1CN(Cc2ccccc2)[C@@H]2CCCCC[C@H](C#N)[C@H]12
Out: inactive

In: Outcome? CC1=CC(C2/C(=N/O)C=C(C)CC2(C)C)C(O)C(C)(C)C1 (stereo not given)
Out: inactive

In: Outcome? Oc1c(Cl)c(Cl)c(O)c(CCNc2ccc3ncccc3c2)c1Cl
Out: inactive

In: Outcome? Cc1cc(C)c2c(SCc3ccc(Cl)cc3Cl)nc(N)nc2n1
Out: inactive

In: Outcome? CCCCCCCCCCCC[C@@H](O)[C@H]1CC[C@H]([C@H]2CC[C@H]([C@H](O)CC[C@H](O)CCCCCCCC3=C[C@H](C)OC3=O)O2)O1
Out: inactive

In: Outcome? O=C1c2ccccc2C(=O)C12CCc1ccccc12
Out: inactive

In: Outcome? Oc1cccc(-c2cc(O)c3cc4c(cc3n2)OCO4)c1
Out: active

In: Outcome? O=C1Oc2ccccc2C(=O)/C1=C/N1C(=O)N/C(=C\c2cccc(O)c2)C1=O
Out: inactive

In: Outcome? O=C(NN1C(=O)CS(=O)(=O)C1c1ccc(C(F)(F)F)cc1)c1ccncc1 (stereo not given)
Out: inactive

In: Outcome? CC1=C(C(=O)OCCc2ccc([N+](=O)[O-])cc2)C(c2ccccc2C(F)(F)F)C(C(=O)OC(C)C)=C(C)N1 (stereo not given)
Out: inactive

----------
System: CCRF-CEM
Assay name: NCI tumour cell line growth inhibition, 48 h
The source made the active and inactive calls. No stated cut-off is given here; in the data, active = GI50 up to about 1.1 µM and inactive = higher.
Reported metric: GI50

In: Return GI50 measured with CCRF-CEM given this molecule: CC1=NN(c2cccc(Cl)c2)C2(SCC(=O)N2c2nc3ccccc3s2)/C1=C\c1ccccc1 (configuration not stated)
Out: 28.2 µM (inactive)

In: Return GI50 measured with CCRF-CEM given this molecule: C#Cc1cc(Br)c(OC(=O)C(C)(C)C)c(-c2cc(C#C)cc(Br)c2OC(=O)C(C)(C)C)c1
Out: 10.3 µM (inactive)

In: Return GI50 measured with CCRF-CEM given this molecule: CN1CCN(Cn2nc(COc3ccc(Cl)cc3)n(/N=C/c3ccc(-c4ccc(Cl)cc4Cl)o3)c2=S)CC1
Out: 0.247 µM (active)

In: Return GI50 measured with CCRF-CEM given this molecule: CCOC(=O)/C=C(/C)Nc1nc2c(c(C(=O)OC)c1C#N)CCCC2
Out: > 100 µM (inactive)

In: Return GI50 measured with CCRF-CEM given this molecule: COC(=O)Cc1ccc2c(cnn2-c2ccccc2)c1OC
Out: > 10 µM (inactive)

In: Return GI50 measured with CCRF-CEM given this molecule: CCOc1cc(NC(C)=O)ccc1C(=O)NN1C(=O)CSC1c1ccccc1 (configuration not stated)
Out: 37.8 µM (inactive)

In: Return GI50 measured with CCRF-CEM given this molecule: COc1ccc(/C=N/NC(=O)c2ccccc2Nc2ccccc2C(=O)N/N=C/c2ccc(OC)c(OC)c2)cc1OC
Out: > 100 µM (inactive)

----------
System: SW-620
Assay name: NCI tumour cell line growth inhibition, 48 h
Activity calls are given as the source filed them. Rule as the data show it: active = GI50 up to about 1.1 µM and inactive = higher.
Please respond with reported GI50 for every item in the list.

In: Please look up its GI50: C(=N\Cc1ccccc1)/c1ccccc1-c1ccccc1/C=N/Cc1ccccc1
Out: > 10 µM (inactive)

In: Please look up its GI50: CC1(C)CCc2ccc(OCCC(=O)O)cc2O1
Out: > 100 µM (inactive)

In: Please look up its GI50: CC(=O)OC[C@@]1(C)[C@@H]2[C@@H]3[C@@]4(CO[C@]3(C)C(=O)[C@@]3(O)C[C@H](C)[C@H](OC(C)=O)[C@@H]3[C@H]4OC(C)=O)[C@H](OC(=O)c3ccccc3)C[C@@H]21
Out: > 100 µM (inactive)

In: Please look up its GI50: Cc1c(C)c2c(c(N)c1C#N)C(=O)N(CCN1CCNCC1)C2=O
Out: 31.6 µM (inactive)

In: Please look up its GI50: N#CCOc1cccc(C2(N3CC=CCC3)CCCCC2)c1
Out: 94 µM (inactive)

In: Please look up its GI50: CCOC(=O)C(=O)/C(=C\NC(=S)Nc1ccccc1Cl)C(=O)OCC
Out: > 100 µM (inactive)

In: Please look up its GI50: O=C1C(c2ccc(Cl)cc2)=[N+]([O-])c2ccccc21
Out: 39.7 µM (inactive)

In: Please look up its GI50: C/C(=C\C(=O)O)C(=O)N(C)c1ccccc1I
Out: > 100 µM (inactive)

In: Please look up its GI50: CCCCCCCCCCCC(=O)C1=C(O)CC(O)CC1=O (stereo unspecified)
Out: > 100 µM (inactive)

In: Please look up its GI50: CC[C@@]1(C[C@H]2C[C@@]3(C(=O)OC)c4[nH]c5ccccc5c4CCN3C2=S)COC2(CCCCC2)O1
Out: 3.13 µM (inactive)

In: Please look up its GI50: COc1cc(CCc2ccc(OC(C)=O)cc2)cc(OC)c1OC
Out: > 100 µM (inactive)

In: Please look up its GI50: CNC(=O)OCc1nc(SSc2nc(COC(=O)NC)c(COC(=O)NC)n2C)n(C)c1COC(=O)NC
Out: > 100 µM (inactive)

In: Please look up its GI50: COc1ccc(/C=C2\N=C(SC)N(CN3CCOCC3)C2=O)cc1
Out: 22 µM (inactive)

In: Please look up its GI50: O=C(O)c1ccc2c(c1C(=O)O)C(=O)OC2(c1ccc(O)cc1)c1ccc(O)cc1
Out: > 100 µM (inactive)

In: Please look up its GI50: COc1ccc(-c2c(C#N)c(NC(=S)NC(=O)c3ccccc3)nc3c2CCCC3)cc1OC
Out: 75.9 µM (inactive)

In: Please look up its GI50: CCOc1cc(C(=O)O)c2c(ccc3ccc(OC)c(OC)c32)c1OC
Out: > 100 µM (inactive)

In: Please look up its GI50: COc1cc(/C=C2\N=C(c3ccccc3)N(c3nc4cc(C)c(C)cc4s3)C2=O)cc(OC)c1OC
Out: 29.4 µM (inactive)

In: Please look up its GI50: CCN(CC)C(=C(C(Cl)=C(Cl)Cl)[N+](=O)[O-])N(CC)CC
Out: 85.9 µM (inactive)

In: Please look up its GI50: O=C1/C(=C/c2ccco2)N=C(c2ccccc2)N1c1cc2cc(Sc3ccccc3)ccc2[nH]1
Out: 13.1 µM (inactive)

In: Please look up its GI50: CC(C)/C(Cl)=N\OC(=O)Nc1ccc(F)c([N+](=O)[O-])c1
Out: 2.35 µM (inactive)

In: Please look up its GI50: CSc1c(C(=O)Nc2ccccc2)c(N)n(N)c(=O)c1C#N
Out: > 100 µM (inactive)
